experimental_system: human recombinant AhR protein (Homo sapiens)
Sequence (P35869 128-399): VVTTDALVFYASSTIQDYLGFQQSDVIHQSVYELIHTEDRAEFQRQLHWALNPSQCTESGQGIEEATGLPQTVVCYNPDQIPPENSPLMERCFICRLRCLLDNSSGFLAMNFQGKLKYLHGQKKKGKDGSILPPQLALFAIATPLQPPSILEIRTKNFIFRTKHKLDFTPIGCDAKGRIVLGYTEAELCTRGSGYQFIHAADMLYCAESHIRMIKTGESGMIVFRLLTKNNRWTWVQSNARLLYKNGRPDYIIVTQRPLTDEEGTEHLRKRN
protocol_details: Microscale thermophoresis (MST) binding to AhR protein
pKd: −log10 of the molar value.
Hi, to clarify the labels: True covers pKd from 6 upward, False covers anything below 6.

Query block: Is pKd at least 6? Consider CCCCCCCc1[nH]c2ccccc2c(=O)c1O [PQS, 2-heptyl-3-hydroxy-4 (1H)-quinolone]
Result block: False

Query block: Has CC1=C(C/C=C(\C)CCC[C@H](C)CCC[C@H](C)CCCC(C)C)C(=O)c2ccccc2C1=O a recorded pKd greater than or equal to 6?
Result block: False

Query block: Is pKd for CC(C)=CCC/C(C)=C/CC/C(C)=C/CC/C(C)=C/CC1=C(C)C(=O)c2ccccc2C1=O at or above 6?
Result block: True

Query block: Can CC1=CC(=O)c2ccccc2C1=O be said to have pKd at or above 6?
Result block: False

Query block: Can CC1=C(O)C(=O)c2ccccc2C1=O [Pht, 2-hydroxy-3-methyl-1,4-naphthoquinone] be said to have pKd at or above 6?
Result block: True
